# Test system: 755483-174-R-J1-PDC complex spheroid growth, percent test/control;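 further: spheroids exposed to compounds for seven days before readout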
# EXPERIMENT NOTES: Anticancer human tumor 755483-174-R-J1-PDC patient-derived rhabdomyosarcoma cell line growth inhibition [Asc]
# CONDITION PARAMETERS: second compound 0.949 µM; first compound 0.1 µM; active compounds read low
QUANTITY NAME: viability, T/C (%)
Provide only the numeric value, understood in %.

Previously resolved entries follow.
{"columns": ["MOLECULE", "UNIT ABBREV", "viability, T/C"],
 "data": [
  ["COc1c(OCCCN2CCOCC2)ccc2c3n(c(=NC(=O)c4cnc(N)nc4)nc12)CCN3 + CCN1C(C(=O)NC23CCC(C(=O)O)(CC2)CC3)C(c2cccc(Cl)c2F)C2(C(=O)Nc3cc(Cl)ccc32)C12CCCCC2", "%", 30.7],
  ["NC1CCC(NC2CC2c2ccccc2)CC1 (centres undefined) + CCN1C(C(=O)NC23CCC(C(=O)O)(CC2)CC3)C(c2cccc(Cl)c2F)C2(C(=O)Nc3cc(Cl)ccc32)C12CCCCC2", "%", 88.5],
  ["CNC(C)C(=O)NC1CN(S(=O)(=O)c2cccc(S(=O)(=O)N3CCC4CCC(C(=O)NC(c5ccccc5)c5ccccc5)N4C(=O)C(NC(=O)C(C)NC)C3)c2)CCC2CCC(C(=O)NC(c3ccccc3)c3ccccc3)N2C1=O (centres undefined) + CCN1C(C(=O)NC23CCC(C(=O)O)(CC2)CC3)C(c2cccc(Cl)c2F)C2(C(=O)Nc3cc(Cl)ccc32)C12CCCCC2", "%", 56.2]
]}

Then there is this molecule:
What value of measured viability, T/C is listed for Cn1ncnc1[C@H]1c2n[nH]c(=O)c3cc(F)cc(c23)N[C@@H]1c1ccc(F)cc1 + CCN1C(C(=O)NC23CCC(C(=O)O)(CC2)CC3)C(c2cccc(Cl)c2F)C2(C(=O)Nc3cc(Cl)ccc32)C12CCCCC2 ? 33.8
